From: paper PMC10051811

Assay: Micafungin concentrations in cerebrospinal fluid of infants with Candida meningitis (HPLC)
Assay type: in vivo
Settings: human, cerebrospinal fluid, iv, 15 mg/kg/day, Patient 2, dose 15 mg/kg/day iv; HPLC; read-out: CSF values before infusion
Procedure: Micafungin plasma and CSF concentrations were measured 1 h before and 1, 2, and 8 h after the end of the infusion. Sampling overlapped with those required for the clinical monitoring of these critical children. […] Blood picked up was centrifuged at 3000× g, and the plasma residue was stored at 4 °C until analyzed within 6 h or frozen at −20 °C and analyzed within 7 days, as previously reported. Drug concentrations were measured via high-performance liquid chromatography (HPLC). […]
*1 amine or outer side, *2 acyl side, *3 side chain or, on linkers, in order; H or OH if unused. Where a SMILES comes first, the peptide text is derived from it. Bridges are numbered along the chain shown (N, C = ends). [ ]: non-standard residue; d: D form. The star is where a group is joined. hTyr(3S-OH,4S-OH,3'-OSO3H) = N[C@H](C(=O)O)[C@H](O)[C@@H](O)c1ccc(O)c(OS(=O)(=O)O)c1; Orn(4R-OH,5R-OH) = O=C([C@H](C[C@@H](O)[C@@H](O)N[*:3])N[*:1])[*:2]; Pro(3S-OH,4S-Me) = C[C@H]1CN[C@H](C(=O)O)[C@H]1O; X1 = CCCCCOc1ccc(-c2cc(-c3ccc(C(=O)*)cc3)no2)cc1; Gln(3R-OH) = NC(=O)C[C@@H](O)[C@H](N)C(=O)O; Hyp = O=C(O)[C@@H]1C[C@@H](O)CN1

molecule	level at -1 h (ng/mL)
CCCCCOc1ccc(-c2cc(-c3ccc(C(=O)N[C@H]4C[C@@H](O)[C@@H](O)NC(=O)[C@@H]5[C@@H](O)[C@@H](C)CN5C(=O)[C@H]([C@H](O)CC(N)=O)NC(=O)[C@H]([C@H](O)[C@@H](O)c5ccc(O)c(OS(=O)(=O)O)c5)NC(=O)[C@@H]5C[C@@H](O)CN5C(=O)[C@H]([C@@H](C)O)NC4=O)cc3)no2)cc1 [micafungin] (X1-[Orn(4R-OH,5R-OH)]T[Hyp][hTyr(3S-OH,4S-OH,3'-OSO3H)][Gln(3R-OH)][Pro(3S-OH,4S-Me)]; lactam 1-C)	900
